Sourced from patent US20190233498A1

Item-by-item account of Kd
Biological target: T1, human VIP (human)
T1 construct: also called Vasoactive Intestinal Peptide
T1 peptide: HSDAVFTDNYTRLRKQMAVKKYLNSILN
Test: SPR, Ab immobilised
Please reply with the bare figure in µM and do not write the unit itself.

Some binders with known Kd results, for comparison:
[[record]]
binder = "anti-PACAP antibody Ab8 (antibody, human IgG1, kappa, N297A, V domains shown, full-length rabbit/human chimeric antibody) VH: LEQSGGGAEGGLVKPGGSLELCCKASGFSLTTSHWMCWVRQAPGKGLNWIGCISAGSGDADYATWVDAQFTLSRDIDQNTGCLQLNSLTPADTAMYYCTINFELWGQGTLVTVSS VL: AQVLTQTPSSVSAAVGGTVTINCQSSPSVYSSYLSWFQQKPGQPPKFLIYEASKLASGVPSRFSGSGSGTQFTLTISGVQCSDAATYYCLGAYDCGRTDCHAFGGGTEVVVKR"
observation_type = "Kd"
test_result = 0.21

[[record]]
binder = "anti-PACAP antibody Ab3 (antibody, human IgG1, kappa, N297A, V domains shown, full-length rabbit/human chimeric antibody) VH: QEQLVESGGGLVQPEGSLTLTCTASGFSFSSSDYMCWVRQAPGKGLEWIGCIDAGSSGDTYFASWAKGRFTISKTSSTTVTLQMTSLTAADTATYFCARHLYGSITFAFGLWGQGTLVTVSS VL: AAVLTQTPSPVSAAVGGTVTINCQASQSIGSDLAWYQQKPGQPPKLLIYDASTLASGVPSRFSGSGSGTQFTLTISGVQCDDAATYYCQGTYYSSGWYTAFGGGTEVVVKR"
observation_type = "Kd"
test_result = 100000


Query string: Entry under review: anti-PACAP antibody Ab1.H (antibody, human IgG1, kappa, N297A, V domains shown, humanized form of Ab1, full length) VH: EVQLVESGGGLVQPGGSLRLSCAASGFTVSSAVMNWVRQAPGKGLEWIGSIVASGTTYYASSANGRFTISRDNSKNTLYLQMNSLRAEDTAVYYCARGGGEFFIWGQGTLVTVSS VL: DIQMTQSPSTLSASVGDRVTITCQSSESVYSNYLSWYQQKPGKAPKFLIYQASNLASGVPSRFSGSGSGTEFTLTISSLQPDDFATYYCAGGYSENIVGFGGGTKVEIKR . Reported Kd?
Result string: 4.8

Query string: Entry under review: anti-PACAP antibody Ab5 (antibody, human IgG1, kappa, N297A, V domains shown, full-length rabbit/human chimeric antibody) VH: QSVEESGGRLVTPGTPLTLTCTVSGFSLSSYAMIWVRQAPGKGLEWIGIIYDNGDTYYASWAKGRFTISKTSTTVYLKIASPTTEDTATYFCAREPGSTTQNDLWGQGTLVTVSS VL: DVVMTQTPASVSEPVGGTVTIKCQASENIYNSLLWYQQKPGQPPKLLIYRASTLASGVSSRFKGSGSGTEFTLTISDLECADAATYYCQNYYNIWTNGAAFGGGTEVVVKR . Reported Kd?
Result string: 7.2

Query string: Entry under review: anti-PACAP antibody Ab7 (antibody, human IgG1, kappa, N297A, V domains shown, full-length rabbit/human chimeric antibody) VH: QSVEESGGRLVTPGTPLTLTCTASGIDLSGYAMGWVRQAPGKGLEWIGDISTYGTTDYASWVNGRFTISRTSTTVTLKMTSLTTEDTATYFCARDYWLSLWGPGTLVTVSS VL: AAVLTQTPSPVSAAVGGTVTIKCQSSQSVYDNNALAWYQQKPGQPPKLLIYAASTLASGVPSRFKGSGSGTQFTLTINGVQCDDAATYYCLGGYDDPADNAFGGGTEVVVKR . Reported Kd?
Result string: 0.034
